test: Toxicity liver stage against HepG2, at 10uM
Assay type: cell-based
Set-up: test concentration 10 uM, cell line HepG2-A16-CD81EGFP
protocol_conditions: human, HepG2-A16-CD81EGFP cells; read-out: INHIBITION
Provide the recorded cytotoxicity at 10 µM for the entries that follow.
Write it as a number; the unit % goes unstated.

cytotoxicity at 10 µM recorded for this compound, CN(CC(C)(C)C)S(=O)(=O)c1ccc(C(F)(F)F)nc1 , is 3.24

Briefly, cytotoxicity at 10 µM measured for CC(C)N(CC(N)=O)Cc1csc(C(C)(C)C)n1 : -5.13

get_value(item= COCc1ncc(-c2nccn2CCN(C)C)cn1 , readout=cytotoxicity at 10 µM) returns 0.126

The recorded cytotoxicity at 10 µM for entry CC(C)Cn1c(=O)n(CCCn2cccn2)c2cc(C(=O)O)cnc21 equals 1.18

Short answer for CC(=O)N1CCN(C(=O)c2sccc2Br)CC1 : cytotoxicity at 10 µM was 6.83

Consider Cc1noc(C)c1-c1nc(C2CCCN(C(=O)CCN)C2)ccc1CO (centres undefined) . Its measured cytotoxicity at 10 µM is -2.53

GET /value?item= Cc1cc(F)cc2c(NCC(C)(C)C(N)=O)c(C#N)cnc12 &field=cytotoxicity at 10 µM returns -3.25

Noted for Cc1cc(C)n(CC2CN(Cc3ccccn3)CCO2)n1 (centres undefined) : its cytotoxicity at 10 µM reads -3.89

Entry O=C(c1ccc2occc2c1)N1CCC(C(=O)O)(n2cccn2)CC1 , cytotoxicity at 10 µM reported as -0.657

cytotoxicity at 10 µM recorded for this compound, CN(C)CCNC(=O)c1nc2c(o1)CN(C(=O)c1cccnc1)C2 , is 0.109

The measured cytotoxicity at 10 µM associated with COc1ccc(C(C)NS(=O)(=O)c2ccc3c(c2)CCC(=O)N3)cc1F (centres undefined) reads -49.7

Measured cytotoxicity at 10 µM of COc1ccc(C2CCCN2C(=O)NCCCn2ccnc2)cc1 (centres undefined) : -13.4

Per the records, this compound ( Fc1cccc(OC2CCN(CCn3cc4ccccc4n3)CC2)c1 ) has cytotoxicity at 10 µM equal to 8.33

The measured cytotoxicity at 10 µM associated with CC(C)CCNC(=O)c1ccc2c(=O)n(-c3ccccc3)cnc2c1 reads -4.65

Quick note, cytotoxicity at 10 µM for CCC(C)(C)NC(=O)c1ccc(-c2ccco2)[nH]c1=O landed at -15.6

Looking up CC(C)CCn1[nH]c(CNc2ccccc2)nc1=O , I see its cytotoxicity at 10 µM listed as 1.62

The measured cytotoxicity at 10 µM associated with O=C(CCc1ccsc1)N1CCC(N2CCNC2=O)CC1 reads -0.546

Query c1cc(CNCC2CNc3ccnn3C2)cc(Cn2cccn2)c1 (centres undefined) yields cytotoxicity at 10 µM of -19

// field: cytotoxicity at 10 µM; key: Cc1nccn1C1CCCN(C(=O)c2cnc[nH]2)C1 (centres undefined) ; value = -5.43

Noted for Cc1cncc(C2CCN(C(=O)c3ccc(-n4cccn4)nc3)CC2)n1 : its cytotoxicity at 10 µM reads -0.701

Kindly note the recorded cytotoxicity at 10 µM for O=C(c1cc(C2CC2)on1)N1CCC(Oc2ncccc2Br)CC1 , which is 3.96

cytotoxicity at 10 µM reported for this compound Cc1cc(C(=O)NCc2ccc(F)cc2)nc(C2CCCN2C)n1 (centres undefined) : -28.7

Per the record, CC(NC(=O)N(C)Cc1ccncc1)c1nncn1C (centres undefined) has cytotoxicity at 10 µM of 2.57

// sample CC(C)CN1C(=O)CC[C@H]2CN(C(=O)c3ncc[nH]3)CC[C@H]21 , its cytotoxicity at 10 µM was 5.09

###

Record form. Attribute: cytotoxicity at 10 µM. Fill in for each entry.
test: Toxicity liver stage against HepG2, at 10uM
Format: cell-based
Parameters: test concentration 10 uM, cell line HepG2-A16-CD81EGFP
protocol_conditions: human, HepG2-A16-CD81EGFP cells; read-out: INHIBITION
Numeric only. Scale: %

compound CC(C)N1CCc2[nH]nc(C(=O)N3CCOCC3)c2C1 , cytotoxicity at 10 µM observed: -1.6

Field cytotoxicity at 10 µM (entry Cc1noc(CC2CCN(C(=O)C(c3ccccc3C)N(C)C)CC2)n1 (stereo unspecified) ) reads 1.86

Consider c1ccc2c(NCC3(N4CCOCC4)CCSC3)ncnc2c1 (stereo unspecified) . Its measured cytotoxicity at 10 µM is 57

Documented cytotoxicity at 10 µM of O=C(CCn1cnc2cc(F)c(F)cc21)N1CCN2CCCCC2C1 (stereo unspecified) : -12.3

GET /value?item= COc1c(C)cnc(CN2CCn3c(nnc3C(C)C)C2)c1C &field=cytotoxicity at 10 µM returns 5.56

Notebook: CC(C)OC(=O)N1CCC(Nc2ncc(Br)cn2)CC1 , cytotoxicity at 10 µM read as -0.951

###

test: Toxicity liver stage against HepG2, at 10uM
Assay type: cell-based
Parameters: test concentration 10 uM, cell line HepG2-A16-CD81EGFP
protocol_conditions: human, HepG2-A16-CD81EGFP cells; read-out: INHIBITION
quantity_measured: cytotoxicity at 10 µM (%)
State just the number; it will be interpreted in %.

In plain terms, Cc1cc(C[C@@H]2CCC[C@H]2NCc2cccc(F)c2F)on1 has a documented cytotoxicity at 10 µM of -0.474

Query CSCCCN1CC[C@@H](NC(=O)c2cnccn2)[C@H](O)C1 yields cytotoxicity at 10 µM of -14.6

Please fill in: cytotoxicity at 10 µM reported for O=C(CCCc1ccccn1)N1CCSC2(CCCCC2)C1 = -3.71

Query Cc1ccccc1CN1CC[C@H](c2nnc(-c3cncn3C)o2)C1 yields cytotoxicity at 10 µM of 5.08

molecule Cc1nc(CN2CCOC(c3ccc(Cl)cc3)C2)oc1C (stereo not drawn) , cytotoxicity at 10 µM observed: -10.1

The molecule listed as O=C1CCCN1Cc1nnc2n1CCCN(C(=O)c1ccco1)C2 has a reported cytotoxicity at 10 µM of 8.3

The molecule identified as O=S(=O)(Cc1ccccc1F)NC(CO)c1ccco1 (stereo not drawn) registered its cytotoxicity at 10 µM at 6.6

The molecule NCCN1CCC(c2nnc(Cn3ccnc3)n2C2CC2)CC1 showed cytotoxicity at 10 µM equal to -3.07

Record O=C(Cc1ccc2c(c1)CCO2)N1CCCC(n2cccn2)C1 (stereo not drawn) . Reported cytotoxicity at 10 µM: 5.67

Short answer for COCCN1CCN(CC(=O)N(C)Cc2cccc(F)c2)CC1C (stereo not drawn) : cytotoxicity at 10 µM was -151

The recorded cytotoxicity at 10 µM for CCCNc1ccc(C(=O)NCCc2cccc(OC)c2)cn1 is 0.267

The molecule identified as CCN(Cc1ccc(Cl)s1)S(=O)(=O)CC registered its cytotoxicity at 10 µM at -1.11

According to the records, this molecule c1cnn(CC2CCCN2c2ncnc3c2CCC3)c1 (stereo not drawn) displays cytotoxicity at 10 µM of 41.2

Recorded cytotoxicity at 10 µM (molecule Cn1cnnc1Sc1ccc(NC(=O)C2CC2)cc1Cl ): 0.118

Notebook: Cc1nc[nH]c1-c1nccn1CCN1CCCOC1=O , cytotoxicity at 10 µM read as -2.32

Record summary for CC1C(=O)Nc2cccnc2N1S(=O)(=O)c1ccc(C#N)c(Cl)c1 (stereo not drawn) : reported cytotoxicity at 10 µM = -6.75

Record COc1cc(C(=O)N2CCCC(c3cc(C)[nH]n3)C2)ccc1C (stereo not drawn) . Reported cytotoxicity at 10 µM: -17.5

The molecule identified as NC(=O)C1CCN(C(=O)c2ccccc2OCc2ccccc2Cl)CC1 registered its cytotoxicity at 10 µM at -9.4

Summary for this molecule, CC(C)N(Cc1nccn1C)C(=O)c1cc(Cl)c[nH]c1=O : cytotoxicity at 10 µM is -0.723

Summary for this molecule, Cc1cccc(-n2ncc3c2CCCC3NCc2cccc(O)c2)c1C (stereo not drawn) : cytotoxicity at 10 µM is 3.11

// cytotoxicity at 10 µM lookup, molecule = CC(NC(=O)NCCNc1cnccn1)c1cccs1 (stereo not drawn) , result: -3.79

The recorded cytotoxicity at 10 µM for entry O=C(NCc1ccco1)[C@@]12CCO[C@@H]1CCN(Cc1nccs1)C2 equals 14.6

cytotoxicity at 10 µM in this record for CSCCCN1C[C@H](NC(=O)c2ccc(CO)cc2)[C@@H](C2CC2)C1 : -11.1

Sample O=C(NCc1cccnc1-n1cncn1)c1cc(Cl)ccn1 ; cytotoxicity at 10 µM observed: -3.76

So for Fc1cccc(-c2nnn3c2COC(CNCc2nccs2)C3)c1 (stereo not drawn) , the logged cytotoxicity at 10 µM turned out to be -102

Entry under test: Cc1csc(N2CCCN(C(=O)c3cccs3)CC2)n1 . Its cytotoxicity at 10 µM was -8.08

Reported cytotoxicity at 10 µM for Cc1nc2c(c(=O)[nH]1)CCN(C(=O)c1cccc3nccnc13)C2 was -16.8

cytotoxicity at 10 µM in this record for CCNc1nc(C)c(C(=O)N2CCC(C(O)Cc3ccccc3)CC2)s1 (stereo not drawn) : 13.5

Query Cc1cc(=O)[nH]c(-c2cccc(CN3CCCN4CCCC4C3)c2)n1 (stereo not drawn) yields cytotoxicity at 10 µM of 1.46

The reported value for CCCn1nnnc1CSc1nccn1CC in terms of cytotoxicity at 10 µM is -5.15

Recorded cytotoxicity at 10 µM (molecule Cc1noc(C2(C)CCCN(C(=O)c3cccnc3)C2)n1 (stereo not drawn) ): -13.4

The recorded cytotoxicity at 10 µM for entry CC(C)Oc1ccccc1C1CC(=O)Nc2c1cnn2C (stereo not drawn) equals 2.09

Measured cytotoxicity at 10 µM, COCCN1CCCc2sc(C(=O)N3CCCN(C)CC3)nc21 : 0.534

Given item COc1cc(CN2CCCC(Nc3cccc(F)c3)C2)cc(OC)c1O (stereo not drawn) , the value recorded as its cytotoxicity at 10 µM is 1.66

Reported cytotoxicity at 10 µM of CCOC(=O)c1coc(N2CCN(C(=O)c3cccc(OC)c3)CC2)n1 : 8.15

Measured cytotoxicity at 10 µM, COc1ccc(CN)c(OC(F)F)c1 : -41.7

Recorded result, CC[C@@H](CO)Nc1cc(-c2cn[nH]c2)ncn1 , cytotoxicity at 10 µM: -4.78

Value of measured cytotoxicity at 10 µM for the entry Fc1ccc(-c2nnc(CNC3CCc4ncnn4C3)o2)cc1 (stereo not drawn) : -3.67

The reported value for CC(C)CCc1noc(CN2CCCN(C(=O)c3ccco3)CC2)n1 in terms of cytotoxicity at 10 µM is -7.06

Lab note: measured cytotoxicity at 10 µM of CN(C)CCOCC1CN(C(=O)[C@H]2CCCO2)Cc2ccnn2C1 (stereo partly drawn) was -0.422

Input COc1ccnc(N2CCN(C(=O)c3cc(C4CC4)[nH]n3)CC2)n1 . Output cytotoxicity at 10 µM: 6.85

Per the records, this molecule ( CN1CC(=O)N(c2ccsc2)CC12CCN(S(=O)(=O)c1ccccc1)C2 (stereo not drawn) ) has cytotoxicity at 10 µM equal to 1.5

The recorded cytotoxicity at 10 µM for Cc1ccccc1-n1ncc2c(=O)n(CCN3CCCC3)cnc21 is -11.3

According to the records, this molecule CN(C)CC(=O)N1CCc2ncnc(-c3cncnc3)c2CC1 displays cytotoxicity at 10 µM of -2.42

Form field cytotoxicity at 10 µM, entry O=C(NCc1cccnc1)N1CCC2(CC(=O)N(c3ccsc3)C2)C1 (stereo not drawn) : -0.125

Item: Cc1ccccc1N1CC2(CCN(S(=O)(=O)c3cccs3)C2)CC1=O (stereo not drawn) | cytotoxicity at 10 µM: 14.1

Record CCOCC1CN(Cc2ccc3c(c2)OCO3)Cc2ncn(C)c21 (stereo not drawn) , field cytotoxicity at 10 µM: 5.61

Just so you know, measured cytotoxicity at 10 µM for CCN1CC(C(=O)N(C)Cc2cc3cc(F)ccc3[nH]2)CC1=O (stereo not drawn) came out at 0.782
